The reported measurements were obtained from ChEMBL document CHEMBL1125318.

# Carbonic anhydrase 2 (Homo sapiens): IC50 values follow
Measurement label: IC50 (nM)

> print(dat)
                                    molecule                         study.system  measurement.label  unit.info  numeric.readout
 1  CCN(CC)Cc1cc(S(=O)(=O)c2coc(S(N)(=O)=O)c2)ccc1O.Cl  Carbonic anhydrase 2 (Homo sapiens)               IC50         nM               10
 2  CNCc1ccc(C(=O)c2csc(S(N)(=O)=O)c2)cc1.Cl  Carbonic anhydrase 2 (Homo sapiens)               IC50         nM              4.5
 3  CC(C)CNCc1cccc(S(=O)(=O)c2csc(S(N)(=O)=O)c2)c1.Cl  Carbonic anhydrase 2 (Homo sapiens)               IC50         nM               12
 4  CC(C)CCNCc1cccc(C(=O)c2csc(S(N)(=O)=O)c2)c1.Cl  Carbonic anhydrase 2 (Homo sapiens)               IC50         nM                9
 5  COc1ccc(S(=O)(=O)c2csc(S(N)(=O)=O)c2)cc1  Carbonic anhydrase 2 (Homo sapiens)               IC50         nM               45
 6       Cc1ccc(C(=O)c2csc(S(N)(=O)=O)c2)cc1  Carbonic anhydrase 2 (Homo sapiens)               IC50         nM                2
 7  Cl.NS(=O)(=O)c1cc(C(=O)c2ccc(CN3CCOCC3)cc2)cs1  Carbonic anhydrase 2 (Homo sapiens)               IC50         nM              3.7
 8  CC(C)CNCc1ccc(S(=O)(=O)c2csc(S(N)(=O)=O)c2)cc1O  Carbonic anhydrase 2 (Homo sapiens)               IC50         nM               14
 9   NS(=O)(=O)c1cc(S(=O)(=O)c2cccc(O)c2)cs1  Carbonic anhydrase 2 (Homo sapiens)               IC50         nM              2.1
10  CC(C)CNCc1ccccc1S(=O)(=O)c1csc(S(N)(=O)=O)c1.Cl  Carbonic anhydrase 2 (Homo sapiens)               IC50         nM               18
11  CC(C)CNCc1ccc(S(=O)(=O)c2csc(S(N)(=O)=O)c2)cc1.Cl  Carbonic anhydrase 2 (Homo sapiens)               IC50         nM               13
12  Cl.NS(=O)(=O)c1cc(S(=O)(=O)c2ccc(CN3CCOCC3)cc2)cs1  Carbonic anhydrase 2 (Homo sapiens)               IC50         nM              7.6
